system: IDH1 R132H (mutant isocitrate dehydrogenase 1) (Homo sapiens, UniProt O75874, R132H)
Sequence (O75874 2-414 R132H): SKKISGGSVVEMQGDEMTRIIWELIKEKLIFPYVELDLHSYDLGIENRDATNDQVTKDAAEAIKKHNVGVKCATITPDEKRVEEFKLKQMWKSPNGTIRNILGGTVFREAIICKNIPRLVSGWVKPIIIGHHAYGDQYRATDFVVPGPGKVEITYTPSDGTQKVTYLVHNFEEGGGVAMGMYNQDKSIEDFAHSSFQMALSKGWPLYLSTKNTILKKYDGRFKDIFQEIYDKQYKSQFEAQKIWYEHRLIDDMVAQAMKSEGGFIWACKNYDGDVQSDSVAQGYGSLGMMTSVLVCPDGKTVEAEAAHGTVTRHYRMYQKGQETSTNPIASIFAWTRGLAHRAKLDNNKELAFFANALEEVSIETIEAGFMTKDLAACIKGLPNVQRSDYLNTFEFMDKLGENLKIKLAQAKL
test.protocol: coupled enzymatic assay (GAPDH/PGK/luciferase luminescence) with R132H IDH1 enzyme

# molecule, IC50 (nM)
rows = [
    ("O=C(C1CCc2ccccc2CC1)N1Cc2cccnc2Nc2ccc(N3CCOCC3)cc21 [MRK-A]", 5),
]
